- Test system: HL60
- METHOD: Hoechst 33342 nuclear morphological analysis of apoptosis
- Format: cell-based
- STATED CONDITIONS: Homo sapiens, HL-60, 24 h, read-out: AP50 (50% induction of apoptosis), Hoechst 33342 staining (Hoe)
pEC50: −log10 of the molar value.
MEASUREMENT KIND: pEC50

O=c1c(O)c(-c2ccc(O)c(O)c2)oc2cc(O)cc(O)c12 : 4.30
Cc1cc(O)c2c(c1)C(=O)c1cc(O)cc(O)c1C2=O : 5.22
O=C1c2cccc(O)c2C(=O)c2c(O)cc(CO)cc21 : 3.72
O=c1cc(-c2ccc(O)cc2)oc2cc(O)cc(O)c12 : 3.89
O=c1cc(-c2ccccc2)oc2cc(O)cc(O)c12 : 4.12
C(=C\c1ccccc1)/c1ccccc1 [Trans-Stilbene, Trans-stilbene] : 4.30

* * *

- System: KG1a
- METHOD: Hoechst 33342 nuclear morphological analysis of apoptosis
- Assay type: cell-based
- STATED CONDITIONS: Homo sapiens, KG-1a, 24 h, read-out: AP50 (50% induction of apoptosis), Hoechst 33342 staining (Hoe)
pEC50: −log10 of the molar value.
MEASUREMENT KIND: pEC50

O=c1cc(-c2ccccc2)oc2cc(O)cc(O)c12 : < 3.30
Cc1cc(O)c2c(c1)C(=O)c1cc(O)cc(O)c1C2=O : < 3.30
O=C(O)c1cc(O)c2c(c1)C(=O)c1cccc(O)c1C2=O : < 3.30

Taken from paper PMC3873039.
